# composite z-score listing for each entry below
- test-system: Neurogenic locus notch homolog protein 2 (Homo sapiens)
- assay-explanation: Notch2 binders on small-molecule microarrays, primary screen, biochemical, small-molecule microarray, 635 nm fluorescence, stem cell growth factors (AID 1073)
- test-context: Notch2 binding, higher = more signal
Enter a number only.

// solved cases for composite z-score follow
compound	composite z-score
CN1C2C=C(c3ccc(CO)cc3)C(C3C(=O)N(C(N)=O)C(=O)C32)C1c1cccs1 (stereo not drawn)	-0.458
C=C(CCCC)/C(=C/C[C@H](OC(=O)c1ccncc1)c1cccc(OCCO)c1)c1cc(C(=O)OC)ccc1OC	-0.0883

Please find the next compound below.
Input line: Which composite z-score value belongs to C=CCc1cccc([C@H]2N[C@H](C(=O)O)CC[C@@H]2C)c1 ?
Output line: -0.441

The origin of these recorded values is PubChem BioAssay.
